test system: ENR+CD organoids; assay: Primary screen: ATP (CellTiter-Glo 3D, CTG) cell number/viability, 2.5-D 384-well ENR+CD organoids; settings: primary screen; dose 0.40 uM; FC vs plate median
Counter-ions that a name gives are not always drawn.
Answer each item with its documented Dose.FC.CTG.
Answers are plain numbers, in log2 fold change.

C[C@]1(O)C[C@@H](c2nc(-c3ccc4ccc(-c5ccccc5)nc4c3)c3c(N)nccn32)C1 [OSI-906 (Linsitinib)]	−0.158
O=C(O)c1ccc(Nc2ncc3c(n2)-c2ccc(Cl)cc2C(c2c(F)cccc2F)=NC3)cc1 [MLN8054]	0.014
O=C(NNc1ccccc1)c1ccncc1 [PluriSIn #1 (NSC 14613)]	−0.095

Hi there! I need Dose.FC.CTG for each item below, if you can.
1. Cc1ccc(S(=O)(=O)c2ccc([N+](=O)[O-])o2)cc1 [NSC697923]
2. S=C=Nc1cccc(NC(=S)NCCCCNC(=S)Nc2cccc(N=C=S)c2)c1 [MRS 2578]
3. O=C1CC[C@@]2(O)[C@H]3Cc4ccc(O)c5c4[C@@]2(CCN3CC2CC2)[C@H]1O5 [Naltrexone HCl]
4. COc1ccc(CNCc2cccc3ccccc23)cc1.Cl [ML133 HCl]

["−0.014", 0.061, 0.070, "−0.151"]

Record lookup: for ENR+CD organoids, what Dose.FC.CTG belongs to Cc1cn(-c2cc(NC(=O)c3ccc(C)c(Nc4nccc(-c5cccnc5)n4)c3)cc(C(F)(F)F)c2)cn1 [Nilotinib (AMN-107), Nilotinib, reference compound] ?
0.348

----------
Answer each item with its documented Z.LYZ.NS (standard z score).
tested on: ENR+CD organoids (ISC to Paneth cell differentiation); assay: Primary screen: basal (non-stimulated) lysozyme secretion LYZ.NS, 2.5-D 384-well ENR+CD organoid differentiation; type: cell-based, mouse; conditions: primary screen, dose 10.00 uM
Answers are plain numbers.

Worked examples, 5 molecules total:
C[C@@H](c1ncncc1F)[C@](O)(Cn1cncn1)c1ccc(F)cc1F	0.153
N#CC1(c2ccc(NC(=O)c3cccnc3NCc3ccncc3)cc2)CCCC1	0.101
Cc1c(Cl)cccc1Nc1ccccc1C(=O)O	−0.343
Cl.Cl.O=S(=O)(NCCNC/C=C/c1ccc(Br)cc1)c1cccc2cnccc12 [H 89 2HCl]	1.151
Nc1nc(OCc2cc(Br)cs2)c2[nH]cnc2n1	−0.908

Hi there! I need Z.LYZ.NS (standard z score) for each item below, if you can.
1. COc1ccc2cc(-c3nc(-c4ccc([S+](C)[O-])cc4)[nH]c3-c3ccncc3)ccc2c1 (stereo not drawn)
2. CCCSc1nc(N[C@@H]2C[C@H]2c2ccc(F)c(F)c2)c2nnn([C@@H]3C[C@H](OCCO)[C@@H](O)[C@H]3O)c2n1

−0.274
0.170

----------
test system: ENR+CD organoids; assay: Primary screen: ATP (CellTiter-Glo 3D, CTG) cell number/viability, 2.5-D 384-well ENR+CD organoids; settings: primary screen, dose 0.08 uM, standard z score;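 further: compounds given at plating and again on day 3 over a 6-day differentiation from ENR+CV stem-cell-enriched precursors, ATP measured on day 6, plate median as control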
measuredProperty: Z.CTG
Answers are plain numbers.

C[C@]1(O)C[C@@H](c2nc(-c3ccc4ccc(-c5ccccc5)nc4c3)c3c(N)nccn32)C1	−0.775
CCN(CC)CCCC(C)Nc1nc(C)cc(Nc2ccc3nc(C)cc(N)c3c2)n1 (stereo not shown)	0.103
CNC(=O)c1ccc2cc([C@@]3(O)CCn4cncc43)ccc2c1	−0.659

Note: attention shifts to another entry.
I would be grateful if you could share the reported Z.CTG for `CS(=O)(=O)c1cccc(CNc2nc(Nc3ccc4c(c3)CCC(=O)N4)ncc2C(F)(F)F)c1` .
0.183
